Molecular target: ErbB3 on rat Schwann cells (rat) (UniProt Q62799)
Sequence (Q62799 20-1339): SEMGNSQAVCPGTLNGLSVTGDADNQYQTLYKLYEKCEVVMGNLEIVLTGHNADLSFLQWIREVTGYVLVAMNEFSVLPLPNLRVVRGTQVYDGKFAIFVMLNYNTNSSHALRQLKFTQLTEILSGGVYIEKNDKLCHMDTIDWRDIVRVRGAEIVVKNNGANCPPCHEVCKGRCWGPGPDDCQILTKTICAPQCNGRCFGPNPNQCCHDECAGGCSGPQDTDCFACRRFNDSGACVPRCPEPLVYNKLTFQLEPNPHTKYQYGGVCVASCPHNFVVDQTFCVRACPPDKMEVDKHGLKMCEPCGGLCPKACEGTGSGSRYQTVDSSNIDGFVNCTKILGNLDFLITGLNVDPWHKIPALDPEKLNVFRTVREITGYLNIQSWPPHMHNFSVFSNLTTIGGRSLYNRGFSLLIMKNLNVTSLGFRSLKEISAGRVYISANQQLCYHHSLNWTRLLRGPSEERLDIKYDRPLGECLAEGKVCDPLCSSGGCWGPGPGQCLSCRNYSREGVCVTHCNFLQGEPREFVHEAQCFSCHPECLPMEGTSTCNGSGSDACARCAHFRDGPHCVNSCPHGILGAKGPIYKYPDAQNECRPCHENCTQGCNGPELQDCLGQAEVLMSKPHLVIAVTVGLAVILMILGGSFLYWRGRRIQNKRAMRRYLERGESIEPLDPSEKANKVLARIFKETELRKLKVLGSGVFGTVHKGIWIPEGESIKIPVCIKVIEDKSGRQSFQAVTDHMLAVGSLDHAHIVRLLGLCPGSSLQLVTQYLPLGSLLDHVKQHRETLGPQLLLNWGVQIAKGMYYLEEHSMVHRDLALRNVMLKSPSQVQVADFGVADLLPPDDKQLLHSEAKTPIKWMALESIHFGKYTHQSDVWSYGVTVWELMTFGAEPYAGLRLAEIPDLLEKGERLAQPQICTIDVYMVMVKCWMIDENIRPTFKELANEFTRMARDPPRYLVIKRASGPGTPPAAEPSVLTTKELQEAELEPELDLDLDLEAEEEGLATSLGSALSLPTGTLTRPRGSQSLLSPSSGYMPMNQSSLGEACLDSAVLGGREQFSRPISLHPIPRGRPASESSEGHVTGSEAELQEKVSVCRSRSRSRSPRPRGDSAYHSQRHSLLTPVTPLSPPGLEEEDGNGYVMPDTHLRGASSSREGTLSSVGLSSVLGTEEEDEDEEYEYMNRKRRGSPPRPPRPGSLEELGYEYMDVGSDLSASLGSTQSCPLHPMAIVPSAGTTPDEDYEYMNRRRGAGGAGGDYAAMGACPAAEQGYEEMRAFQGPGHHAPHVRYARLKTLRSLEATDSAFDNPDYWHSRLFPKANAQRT
Assay: cell-based or functional assay
quantity name: Schwann cells (SC) (ErbB3) Avg EC50

[in] Which Schwann cells (SC) (ErbB3) Avg EC50 value belongs to huNRG1(S177-Q237)(NRGE1L)::GG::huFcSEFL2 (Pb) (Fc fusion) SHLVKCGESHKSFCVNGGECYMVEGSSIPSRYLCKCPNEFTGDRCQDDFMASFYKAEELYQGGDKTHTCPPCPAPELLGGPSVFLFPPKPKDTLMISRTPEVTCVVVDVSHEDPEVKFNWYVDGVEVHNAKTKPCEEQYGSTYRCVSVLTVLHQDWLNGKEYKCKVSNKALPAPIEKTISKAKGQPREPQVYTLPPSREEMTKNQVSLTCLVKGFYPSDIAVEWESNGQPENNYKTTPPVLDSDGSFFLYSKLTVDKSRWQQGNVFSCSVMHEALHNHYTQKSLSLSPGK ?
[out] > 10 µM
